- Tested on: Caco-2 cell monolayer
- protocol-text: Cellular accumulation (CA) of flavonoids in Caco-2 cell monolayer
- protocol-conditions: accumulated in cell monolayer after transport apical to basolateral, 40 μM, 1 h, normalized to cellular protein, mean ± SD, n = 3
Marks after values point to notes of the source that are not given here.
reported-endpoint: CA A to B

## Input Answer with reported CA A to B of COc1cc2c(=O)c(-c3ccc(O)cc3)coc2cc1O [Compound 25, Glycitein]
## Output 1.821 ± 0.774 ^a μmol/g

## Input Answer with reported CA A to B of COc1ccc(-c2oc3cc(O)cc(O)c3c(=O)c2O)cc1 [Compound 13, Kaempferide]
## Output 2.746 ± 0.478 ^b μmol/g

## Input Answer with reported CA A to B of COc1cc(-c2oc3cc(O)cc(O)c3c(=O)c2O)ccc1O [Compound 15, Isorhamnetin]
## Output 0.332 ± 0.066 ^a μmol/g
